- protocol-description: log P by HPLC on reversed-phase column (EEC Directive 79/831 Annex V.A8)
- Type: physicochemical
Would you kindly list logP for each of these compounds?
Answers are plain numbers.

As a guide, the following entries are already answered.
IN: If you can, please state the reported logP value of Cn1nc(C(F)F)c(C(=O)N(CC#Cc2ccccc2)C2CC2)c1Cl [Example 272] .
OUT: 3.33

IN: Item CN(C(=O)c1c(C(F)F)nn(C)c1F)C(CSCc1ccccc1)C1CC1 (centres unmarked) [Example 225] has what recorded logP?
OUT: 3.46

IN: I'd like to know its logP. The compound in question is CN(CCCc1ccccc1Cl)C(=O)c1c(C(F)F)nn(C)c1Cl [Example 141]
OUT: 3.17

IN: Which logP value belongs to CC(CCc1ccc(C(F)(F)F)cc1)NC(=O)c1c(C(F)F)nn(C)c1Cl (centres unmarked) [Example 70] ?
OUT: 3.63

IN: Look up logP for this compound: CCCN(CCOc1ccc(Cl)cc1)C(=O)c1c(C(F)F)nn(C)c1Cl [Example 54]
OUT: 3.67

Required: logP, one value per compound below.
1. Cc1cccc(C)c1CC(C)CNC(=O)c1c(C(F)F)nn(C)c1F (racemic) [Example 150]
2. CN(CCCc1cc2ccccc2s1)C(=O)c1c(C(F)F)nn(C)c1F [Example 96]
3. CC(CC1CCCCC1)N(C(=O)c1c(C(F)F)nn(C)c1F)C1CC1 (centres unmarked) [Example 370]
4. CN(CC=Cc1ccccc1)C(=O)c1c(C(F)F)nn(C)c1F [Example 262]
5. Cn1nc(C(F)F)c(C(=O)NC2(COc3ccc(Cl)cc3)CC2)c1F [Example 44]
6. Cn1nc(C(F)F)c(C(=O)N(CC#Cc2ccccc2)C(C)(C)C)c1Cl [Example 268]

OUT:
1: 3.44; 2: 3.25; 3: 4.36; 4: 2.73; 5: 3.00; 6: 3.96

Hey, can you go through the list below and give me logP for every item?
1. CC(C)CCC1CCCCC1NC(=O)c1c(C(F)F)nn(C)c1F (centres unmarked) [Example 333]
2. CC(CCc1c(Cl)cc(Cl)cc1Cl)NC(=O)c1c(C(F)F)nn(C)c1Cl (centres unmarked) [Example 216]
3. C#CC1(NC(=O)c2c(C(F)F)nn(C)c2Cl)CCCCC1 [Example 384]
4. CN(CCCc1cc(Cl)ccc1Cl)C(=O)c1c(C(F)F)nn(C)c1Cl [Example 167]
5. CC(COc1ccc(Cl)cc1Cl)N(C(=O)c1c(C(F)F)nn(C)c1F)C1CC1 (centres unmarked) [Example 187]
6. Cn1nc(C(F)F)c(C(=O)NC(COc2ccccc2)C2CC2)c1Cl (centres unmarked) [Example 20]
7. CC(CNC(=O)c1c(C(F)F)nn(C)c1F)Cc1cc(Cl)ccc1Cl (centres unmarked) [Example 165]

OUT:
4.22
4.53
2.73
3.62
4.16
3.25
3.65

Each compound below has a reported value. Please supply its logP.
1. Cc1ccc2sc(C#CCN(C(=O)c3c(C(F)F)nn(C)c3F)C3CC3)cc2c1 [Example 285]
2. Cn1nc(C(F)F)c(C(=O)NC(C)(C)CCc2ccc(Cl)c(Cl)c2)c1F [Example 134]
3. CCCC1CCCCC1NC(=S)c1c(C(F)F)nn(C)c1F (centres unmarked) [Example 345]
4. Cn1nc(C(F)F)c(C(=O)NC2(C3CCCCC3)CC2)c1F [Example 381]
5. Cn1nc(C(F)F)c(C(=O)NCC(=O)Nc2c(Cl)cc(Cl)cc2Cl)c1Cl [Example 198]

OUT:
1: 4.26; 2: 4.21; 3: 4.21; 4: 3.11; 5: 2.56
